Taken from paper PMC9638933.

target: the molecule itself; test: SEC-MALS; 50 uM protein in 50 mM HEPES pH 8.0, 1 mM EDTA, 200 mM NaCl; Superdex 200 Increase 10/300 GL; MiniDAWN and Optilab
ASSAY_ENDPOINT: stoichiometry N

>>> assay_result("Ku L251A (M. tuberculosis) (natural protein, biotinylated with NHS-LC-Biotin for BLI only) MRAIWTGSIAFGLVNVPVKVYSATADHDIRFHQVHAKDNGRIRYKRVCEACGEVVDYRDLARAYESGDGQMVAITDDDIASLPEERSREIEVLEFVPAADVDPMMFDRSYFLEPDSKSSKSYVLLAKTLAETDRMAIVHFTLRNKTRLAALRVKDFGKREVMMVHTLLWPDEIRDPDFPVLDQKVEIKPAELKMAGQVVDSMADDFNPDRYHDTYQEQLQELIDTKLEGGQAFTAEDQPRLLDEPEDVSDALAKLEASVKARSKANSNVPTPP")
2
